molecular target: Peroxisome proliferator-activated receptor alpha (Homo sapiens) (UniProt Q07869); experiment: qHTS assay for small molecule agonists of the peroxisome proliferator-activated receptor alpha (PPARalpha) signaling pathway (AID 651778); details: PathHunter PPARalpha complementation, chemiluminescence, 6 h; active compounds read high; also: % of control where 0% means no effect
Sequence (Q07869 whole entry, looked up): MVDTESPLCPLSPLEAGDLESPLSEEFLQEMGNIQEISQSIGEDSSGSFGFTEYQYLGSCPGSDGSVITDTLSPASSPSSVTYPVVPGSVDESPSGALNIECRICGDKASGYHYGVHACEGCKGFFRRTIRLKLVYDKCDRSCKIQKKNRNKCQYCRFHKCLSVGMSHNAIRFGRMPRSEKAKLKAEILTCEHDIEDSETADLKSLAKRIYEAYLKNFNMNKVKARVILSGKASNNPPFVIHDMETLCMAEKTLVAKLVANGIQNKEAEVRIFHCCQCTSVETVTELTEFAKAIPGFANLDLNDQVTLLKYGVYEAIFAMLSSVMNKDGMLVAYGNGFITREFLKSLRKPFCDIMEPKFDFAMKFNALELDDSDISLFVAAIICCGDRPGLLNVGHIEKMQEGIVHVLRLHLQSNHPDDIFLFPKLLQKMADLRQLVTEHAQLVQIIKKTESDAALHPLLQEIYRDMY
measured_property: max response (%)
The answer is to be given in %; state only the numeric part.

### Prompt State max response on Peroxisome proliferator-activated receptor alpha (Homo sapiens) (UniProt Q07869). Entry: CC(=O)/C=C/C1C(C)=CCCC1(C)C (stereo unspecified)
### Response -0.682

### Prompt With Peroxisome proliferator-activated receptor alpha (Homo sapiens) (UniProt Q07869) as the test system, provide measured max response for this compound: CCCOC(=O)c1ccc(C(=O)OCCC)nc1
### Response -0.236

### Prompt With Peroxisome proliferator-activated receptor alpha (Homo sapiens) (UniProt Q07869) as the test system, provide measured max response for this compound: CCN(Cc1c(F)cccc1Cl)c1c([N+](=O)[O-])cc(C(F)(F)F)cc1[N+](=O)[O-]
### Response -0.89

### Prompt Fill in max response for CC1(C)[C@@H](C=C(Cl)Cl)[C@@H]1C(=O)OCc1cccc(Oc2ccccc2)c1 tested with Peroxisome proliferator-activated receptor alpha (Homo sapiens) (UniProt Q07869).
### Response -0.645

### Prompt Report max response from Peroxisome proliferator-activated receptor alpha (Homo sapiens) (UniProt Q07869) testing of CCC(=O)OCCc1ccccc1
### Response -0.0633

### Prompt Enter recorded max response with Peroxisome proliferator-activated receptor alpha (Homo sapiens) (UniProt Q07869) for CCCCN(CCCC)CCCCCCN(CCCC)CCCC here.
### Response -0.567

### Prompt Find the measured max response of CCCCOCC(C)OCC(C)O (stereo unspecified) with Peroxisome proliferator-activated receptor alpha (Homo sapiens) (UniProt Q07869) as test system.
### Response -0.312

### Prompt Give max response for this entry on Peroxisome proliferator-activated receptor alpha (Homo sapiens) (UniProt Q07869): C[Si](Cl)(Cl)c1ccccc1
### Response -2.64

### Prompt Report the value of max response obtained on Peroxisome proliferator-activated receptor alpha (Homo sapiens) (UniProt Q07869) for C[C@]12CC[C@@H]3c4ccc(O)cc4CC[C@H]3[C@@H]1CC[C@H]2O .
### Response -0.0791

### Prompt Lab note: Peroxisome proliferator-activated receptor alpha (Homo sapiens) (UniProt Q07869) assay, enter max response for CCCCCCCCCC(=O)OC here
### Response 1.96

### Prompt Recall the reported max response of C=C(C)C(=O)OCCC[Si](OC)(OC)OC on Peroxisome proliferator-activated receptor alpha (Homo sapiens) (UniProt Q07869) and write it down.
### Response -1.45

### Prompt Provide max response, system Peroxisome proliferator-activated receptor alpha (Homo sapiens) (UniProt Q07869), entry CC(C)O.CC(C)O.CC(C)O.CC(C)O.[Ti]
### Response -0.904

### Prompt Enter recorded max response with Peroxisome proliferator-activated receptor alpha (Homo sapiens) (UniProt Q07869) for CCCCOC(=O)c1ccccc1 here.
### Response -1.04

### Prompt Write down measured max response (Peroxisome proliferator-activated receptor alpha (Homo sapiens) (UniProt Q07869)) for this compound. CN(C)c1nc(=O)n(C2CCC(O)CC2)c(=O)n1C (stereo unspecified)
### Response -3.35

### Prompt # lookup: Peroxisome proliferator-activated receptor alpha (Homo sapiens) (UniProt Q07869) max response, key = C[Si]1(C)O[Si](C)(C)O[Si](C)(C)O[Si](C)(C)O1
### Response -0.153

### Prompt Look up and report max response, with Peroxisome proliferator-activated receptor alpha (Homo sapiens) (UniProt Q07869) as system, for CCCCCCCCCCCCCCC(=O)OC
### Response -0.882

### Prompt Enter max response (test system Peroxisome proliferator-activated receptor alpha (Homo sapiens) (UniProt Q07869)) for C[Si]1(C)O[Si](C)(C)O[Si](C)(C)O[Si](C)(C)O[Si](C)(C)O1
### Response -3.04

### Prompt # return max response for CCN(Cc1cccc(S(=O)(=O)O)c1)c1ccc(C(=C2C=CC(=[N+](CC)Cc3cccc(S(=O)(=O)[O-])c3)C=C2)c2ccccc2)cc1 , test system: Peroxisome proliferator-activated receptor alpha (Homo sapiens) (UniProt Q07869)
### Response -3.93

### Prompt Look up and report max response, with Peroxisome proliferator-activated receptor alpha (Homo sapiens) (UniProt Q07869) as system, for O=C(c1ccccc1)c1ccc(O)c(O)c1O
### Response -4.07

### Prompt Determine reported max response for COc1ccc(OC)c(OC)c1 ; test system: Peroxisome proliferator-activated receptor alpha (Homo sapiens) (UniProt Q07869).
### Response 0.14

### Prompt Report max response from Peroxisome proliferator-activated receptor alpha (Homo sapiens) (UniProt Q07869) testing of CCOC(=O)C1=NN(c2ccc(Cl)cc2Cl)C(C)(C(=O)OCC)C1 (stereo unspecified)
### Response 0.459

### Prompt Please respond with reported max response (system Peroxisome proliferator-activated receptor alpha (Homo sapiens) (UniProt Q07869)) for CCCCCc1ccc(N)cc1 .
### Response -1.26

### Prompt Quote Peroxisome proliferator-activated receptor alpha (Homo sapiens) (UniProt Q07869) max response for entry O=C(OCCOCCOC(=O)c1ccccc1)c1ccccc1 .
### Response -0.375

### Prompt Report value: max response, system: Peroxisome proliferator-activated receptor alpha (Homo sapiens) (UniProt Q07869), compound: CC1COCc2cc3c(cc21)C(C)(C)C(C)C3(C)C (stereo unspecified)
### Response 7.58

### Prompt Report value only: max response, Peroxisome proliferator-activated receptor alpha (Homo sapiens) (UniProt Q07869), Oc1ccc2ccccc2c1N=Nc1ccccc1
### Response 0.672

### Prompt Return reported max response for target or system Peroxisome proliferator-activated receptor alpha (Homo sapiens) (UniProt Q07869), item COC(=O)c1ccccc1C(=O)O .
### Response -0.96

# credit: PubChem BioAssay (NCATS)
